Molecular target: Mot3 (UniProt P54785)
Sequence: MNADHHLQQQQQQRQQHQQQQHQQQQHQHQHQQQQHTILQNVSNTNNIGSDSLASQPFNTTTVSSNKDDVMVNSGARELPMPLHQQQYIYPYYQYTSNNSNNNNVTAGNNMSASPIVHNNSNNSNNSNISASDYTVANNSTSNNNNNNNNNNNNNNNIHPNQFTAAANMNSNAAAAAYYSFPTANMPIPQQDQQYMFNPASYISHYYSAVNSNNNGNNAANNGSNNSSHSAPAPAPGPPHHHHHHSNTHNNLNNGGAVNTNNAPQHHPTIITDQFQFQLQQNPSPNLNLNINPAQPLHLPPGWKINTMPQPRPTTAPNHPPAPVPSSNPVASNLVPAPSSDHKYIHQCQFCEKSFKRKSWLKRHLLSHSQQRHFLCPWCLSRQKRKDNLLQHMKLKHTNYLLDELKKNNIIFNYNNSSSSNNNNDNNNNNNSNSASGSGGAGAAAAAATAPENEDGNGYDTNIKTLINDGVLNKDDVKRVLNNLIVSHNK
Assay: PBM E-score (8-mer binding enrichment) (E-score (-0.5 to 0.5)); higher = stronger / more preferred TF binding
Settings: protein concentration: 200 nM; construct: GST-full length
Whole data set: some 33,000 sequences, median “E-score (-0.5 to 0.5)” near -0.035, cut for the highest 2% near 0.34. The sample as a whole holds a higher share of the highest values than the screen did.
RESULT TYPE: PBM E-score

1) TACCTACA | 0.381
2) AAAGGCGG | 0.0743
3) AGCCTAAA | 0.178
4) CGGCCTGC | -0.212
5) CCATGTCG | 0.247
6) TCATGTCA | 0.283
7) CACCTACA | 0.227
8) AGCCTTAA | 0.158
9) GTCCTAAA | 0.125
10) CGCCTTAA | 0.323
11) GAAGGCGA | -0.0248
12) ACATGTAG | 0.388
13) GGCCTAAA | 0.0327
14) TGCCTAAA | 0.476
15) TCATGTAA | 0.414
16) GCATGTAA | 0.41
17) AGACGTTC | -0.008
18) ACATGTAC | 0.333
19) TGCCTTAA | 0.471
20) TGATGTAA | 0.281
21) ACATGTCG | 0.246
22) ATTAGCCA | -0.147
